Recorded spectrum intensity of the extracted mass range (compound in SEC spin column filtrate), one value per entry.
- target under test: FLJ13397 clone-derived protein (CARP) (Homo sapiens, UniProt Q9H8M7)
- Construct: A human full-length cDNA clone was expressed as a protein with an N-terminal His tag; His tag (pDEST17 Gateway vector) (N); made in house; host or cells: Escherichia coli BL21star(DE3)pLysS
- Sequence (Q9H8M7 whole entry): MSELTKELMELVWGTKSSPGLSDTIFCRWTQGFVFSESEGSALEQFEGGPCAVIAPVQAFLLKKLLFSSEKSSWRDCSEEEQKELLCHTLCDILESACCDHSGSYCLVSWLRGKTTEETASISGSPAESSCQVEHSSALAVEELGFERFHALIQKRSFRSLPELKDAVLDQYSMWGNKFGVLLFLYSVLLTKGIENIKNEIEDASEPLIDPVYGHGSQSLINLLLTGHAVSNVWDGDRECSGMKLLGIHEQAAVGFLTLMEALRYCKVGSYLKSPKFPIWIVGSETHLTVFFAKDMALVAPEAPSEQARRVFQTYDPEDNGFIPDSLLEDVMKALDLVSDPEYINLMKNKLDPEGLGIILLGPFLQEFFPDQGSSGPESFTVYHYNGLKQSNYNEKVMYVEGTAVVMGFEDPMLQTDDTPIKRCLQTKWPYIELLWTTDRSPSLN
- test summary: SEC/MS (size exclusion chromatography / mass analysis) interaction analysis between FLJ13397 clone-derived protein and compounds
- Format: binding
- condition parameters: compound 1 μM; protein 47.5 μM
Respond with the number and no other words.

In the examples that follow, each entry is paired with its recorded spectrum intensity of the extracted mass range (compound in SEC spin column filtrate).
- compound: "Oc1ccc(CCN2CCC(Nc3nc4ccccc4n3Cc3ccc(F)cc3)CC2)cc1"
  value: 10876345
- compound: "Nc1nc2ccccc2n1Cc1ccccc1"
  value: 2958392
- compound: "COC(=O)Nc1nc2ccc(C(=O)c3ccccc3)cc2[nH]1"
  value: 495499
- compound: "CCC[S+]([O-])c1ccc2[nH]c(NC(=O)OC)nc2c1 (centres unmarked) [Albendazole Sulfoxide]"
  value: 1361540
- compound: "COC(=O)Nc1nc2ccc(C(=O)c3cccs3)cc2[nH]1"
  value: 3977550

Input line: Given COC(=O)Nc1nc2ccccc2[nH]1 , state its recorded spectrum intensity of the extracted mass range (compound in SEC spin column filtrate).
Output line: 24660680

Input line: Continue with COC(=O)Nc1nc2ccc([S+]([O-])c3ccccc3)cc2[nH]1 (centres unmarked)
Output line: 35025210

Input line: # repeat for CCCS(=O)(=O)c1ccc2nc(NC(=O)OC)[nH]c2c1
Output line: 761260

Input line: Then this compound: c1ccc2[nH]cnc2c1
Output line: 1328076

Value source: patent US8153385B2
